Target: MARS (methionyl-tRNA synthetase) (Homo sapiens, UniProt P56192)
Construct: Flag-tagged, cDNA NM_004990.3
Sequence (P56192 whole entry): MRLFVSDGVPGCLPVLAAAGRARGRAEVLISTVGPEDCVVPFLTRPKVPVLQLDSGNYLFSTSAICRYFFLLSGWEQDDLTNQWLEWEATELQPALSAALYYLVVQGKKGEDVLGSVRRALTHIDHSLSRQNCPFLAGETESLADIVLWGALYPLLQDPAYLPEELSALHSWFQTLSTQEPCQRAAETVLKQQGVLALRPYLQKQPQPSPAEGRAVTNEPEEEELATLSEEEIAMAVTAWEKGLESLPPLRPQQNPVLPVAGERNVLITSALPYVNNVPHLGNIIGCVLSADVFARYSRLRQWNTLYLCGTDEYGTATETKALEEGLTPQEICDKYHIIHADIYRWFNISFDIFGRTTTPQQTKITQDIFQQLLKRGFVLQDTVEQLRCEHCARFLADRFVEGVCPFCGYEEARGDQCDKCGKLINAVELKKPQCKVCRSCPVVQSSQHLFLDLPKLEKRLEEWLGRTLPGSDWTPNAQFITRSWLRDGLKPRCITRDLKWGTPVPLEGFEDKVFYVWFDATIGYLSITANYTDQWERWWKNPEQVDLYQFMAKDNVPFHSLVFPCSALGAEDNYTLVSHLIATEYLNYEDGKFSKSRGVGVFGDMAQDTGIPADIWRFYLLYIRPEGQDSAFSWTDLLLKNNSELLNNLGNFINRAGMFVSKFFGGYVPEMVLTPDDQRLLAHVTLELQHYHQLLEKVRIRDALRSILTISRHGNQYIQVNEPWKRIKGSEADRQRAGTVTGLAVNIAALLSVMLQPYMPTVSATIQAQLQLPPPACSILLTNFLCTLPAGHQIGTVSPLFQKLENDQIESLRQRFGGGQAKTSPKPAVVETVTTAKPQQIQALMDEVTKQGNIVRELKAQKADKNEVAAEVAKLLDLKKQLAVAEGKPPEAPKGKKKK
Assay: in vitro HTL production from Hcy ([…]), thin layer chromatography
pIC50: −log10 of the molar value.

[
  {
    "Molecule": "NC(=O)CSCCC(N)C(=O)O (racemic)",
    "pIC50": 4.44
  }
]
